B1: tRNA (parent)
chain: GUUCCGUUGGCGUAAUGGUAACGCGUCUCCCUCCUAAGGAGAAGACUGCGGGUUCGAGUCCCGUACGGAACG

variants of: B1; test: yeast fitness relative to wild type (ratio to wild type); higher = fitter; tRNA-Arg(CCU), competitive growth, 37 C, YPD
Variants at the floor of the assay were thinned out.
Field: class. Source value: yeast fitness. Ranges: zone 1 = under 0.6, zone 2 = from 0.6 up to 0.9, zone 3 = 0.9 and over

Category of C4G A14C G51C :
zone 1

Category of C31U G44C C60U :
zone 2

Category of C5G G23A U32C C61A :
zone 1

Category of U3C U8C C27G C33A :
zone 1

Category of U7A A20U :
zone 2

Category of C11G A15G C22A U26A A40U U54C C62A :
zone 1

Category of C46G A69C :
zone 3

Category of G6A C33U G56C C60U :
zone 1

Category of A20C G56A G67A :
zone 1

Category of A43G A69C :
zone 3

Category of U8G A37C G52C G58C :
zone 1

Category of U26A C33A A45C :
zone 1

Category of C5U A15G A42G G58C G68A :
zone 1

Category of A15U A65G C66A G67C :
zone 1

Category of G10C A37G C49U G52A C55G C66A :
zone 1

Category of C5G G12A C22A U26C C33G U64A G67C :
zone 1

Category of G48A A70C :
zone 3

Category of G17A G68C :
zone 3

Category of G52A G56A A65U A70G :
zone 1

Category of C11A U16C C27G G48C :
zone 1

Category of U28A C31A G51C :
zone 1

Category of C31G G68A :
zone 2

Category of U13C A15U C46A C66U :
zone 1

Category of A21U C46U C49U U54A :
zone 1

Category of C27G C31U C34G A37G A65C :
zone 1

Category of C5A U13A A45C :
zone 1

Category of A21U U32G G51C C61U :
zone 1

Category of U35C G51U :
zone 1

Category of C11U G41A G58A :
zone 2

Category of U3C G12A A45U C66G :
zone 2

Category of C5G G51C C61G C66U :
zone 1

Category of C31A A43U G63A A70C :
zone 1

Category of U8C C31A A42G A43G G68C :
zone 1

Category of U2C C29U C66G G68A :
zone 1

Category of A15C A21C C27G C62U :
zone 1

Category of A42G A70U :
zone 3

Category of U2C C4U C62U :
zone 2

Category of G17A A20G C30A :
zone 2

Category of G9A A45C :
zone 3

Category of C29U G52C :
zone 1

Recorded values, source the RNAGym collection of RNA variant scans (doi:10.1126/science.aae0568).
